Please go through the items and note down their IFN-α mean.
test system: human PBMCs; assay: Human PBMC cytokine response assay (IFN-γ and IFN-α in cell-free medium by ELISA), with or without cPLGA; type: cell-based; conditions: Table 11; mean of donors
Strand notation (5' to 3'): a small letter for the sugar, then the base; units joined by * are phosphorothioate-linked, units joined directly phosphodiester-linked; [ ] holds rarer units or linkages, { } end groups; capitals alone tell only the bases. d = 2'-deoxy (DNA)
Number only, in pg/mL; omit the unit.

Q: Any idea what IFN-α mean came out for 5′-TCGTCGA-3′- C3-5′-ACGTTCG-3′-C3-5′-AGATGAT-3′ [Compound C-9] on human PBMCs?
A: 29

Q: Likewise for 5′-TCGTCGA-3′-HEG-5′-TCGTCGA-3′-HEG-5′-TCGTCGA-3′ [Compound C-21] ?
A: 195

Q: Same question, 5′-GsGs-3′-C3-5′-TGC-3′-C3-5′-ATCGAT-3′-C3-5′-GCA-3′-C3-5′-GGsGsGsGsG-3′ (s = phosphorothioate linkages, otherwise linkages are phosphodiester) [Compound C-84] this time
A: 57

Q: Next substance up: (5′-TCGTCGA-3′-HEG)2-glycerol-HEG-5′-TCGTCGA-3′ [Compound C-94]
A: 768

Q: // repeat for 5′-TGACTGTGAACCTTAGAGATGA-3′ (SEQ ID NO: 3) (dT*dG*dA*dC*dT*dG*dT*dG*dA*dA*dC*dC*dT*dT*dA*dG*dA*dG*dA*dT*dG*dA) [Compound P-7, negative control, reference compound] and report
A: 15

Q: Could you do the same for 5′-TGACTGTGA-3′-HEG-5′-ACGTTCG-3′-HEG-5′-AGATGAT-3′ [Compound C-53] , please?
A: 1

Every entry's value here was drawn from patent US9028845B2.
